FYI, the data here is from ChEMBL document CHEMBL4715726.

- Tested System: Bifunctional epoxide hydrolase 2 (Homo sapiens, UniProt P34913)
- Sequence (P34913 whole entry): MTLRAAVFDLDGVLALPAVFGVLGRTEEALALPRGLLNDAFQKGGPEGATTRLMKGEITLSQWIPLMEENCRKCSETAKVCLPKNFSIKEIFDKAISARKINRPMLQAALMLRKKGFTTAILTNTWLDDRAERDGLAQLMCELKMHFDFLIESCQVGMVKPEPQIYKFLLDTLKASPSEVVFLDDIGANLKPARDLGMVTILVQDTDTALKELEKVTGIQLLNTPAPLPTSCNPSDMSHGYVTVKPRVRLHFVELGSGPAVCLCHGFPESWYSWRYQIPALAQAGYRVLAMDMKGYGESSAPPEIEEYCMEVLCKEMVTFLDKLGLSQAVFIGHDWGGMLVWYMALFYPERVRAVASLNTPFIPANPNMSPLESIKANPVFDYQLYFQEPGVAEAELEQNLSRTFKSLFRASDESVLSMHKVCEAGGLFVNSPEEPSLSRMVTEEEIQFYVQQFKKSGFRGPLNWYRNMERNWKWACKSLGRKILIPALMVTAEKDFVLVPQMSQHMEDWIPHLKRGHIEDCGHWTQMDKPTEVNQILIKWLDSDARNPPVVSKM
- Run Description: Inhibition of sEH (unknown origin) assessed as reduction in 6-methoxy-2-naphthaldehyde formation using PHOME as substrate measured after 40 mins by fluorescence photometry analysis
Readout Label: IC50 (µM)
Write it as a number; the unit µM goes unstated.

>>> numeric_value("COc1cc(O)c2c(=O)cc(-c3ccc(O[C@@H]4O[C@H](CO)[C@@H](O)[C@H](O)[C@H]4O)c(OC)c3)oc2c1")
17.5
>>> numeric_value("O=C(Oc1c(-c2ccc(O)c(O)c2)oc2cc(O)cc(O)c2c1=O)c1cc(O)c(O)c(O)c1")
11.5

Which measured IC50 value corresponds to `COc1cc(O)c2c(=O)c(O[C@@H]3O[C@H](CO)[C@@H](O)[C@H](O)[C@H]3O)c(-c3ccc(O[C@@H]4O[C@H](CO)[C@@H](O)[C@H](O)[C@H]4O)c(OC)c3)oc2c1` ?
19.8

Which measured IC50 value corresponds to `COc1cc(O)c2c(=O)c(OC)c(-c3ccc(O[C@@H]4O[C@H](CO)[C@@H](O)[C@H](O)[C@H]4O[C@@H]4OC[C@](O)(CO)[C@H]4O)c(OC)c3)oc2c1` ?
12

Which measured IC50 value corresponds to `O=C(Oc1cc(O)c2c(c1)O[C@H](c1cc(O)c(O)c(O)c1)CC2)c1cc(O)c(O)c(O)c1` ?
10
